- experimentalTarget: Adenosine receptor A3 (Rattus norvegicus)
- Assay type: cell-based
- testParameters: CHO, 10 mM
endpoint: inhibition (%)

I = Nc1nc2nn(CCc3ccccc3)cc2c2nc(-c3ccco3)nn12
II = CCCn1cc2c(nc(N)n3nc(-c4ccco4)nc23)n1
Compare I and II by numeric inhibition and name the larger one. In your reply, give the label of the chosen option.
I
(I: 12%, II: 2%)

* * *

- experimentalTarget: Adenosine receptor A2a (Rattus norvegicus, UniProt P30543)
- Sequence (P30543 whole entry): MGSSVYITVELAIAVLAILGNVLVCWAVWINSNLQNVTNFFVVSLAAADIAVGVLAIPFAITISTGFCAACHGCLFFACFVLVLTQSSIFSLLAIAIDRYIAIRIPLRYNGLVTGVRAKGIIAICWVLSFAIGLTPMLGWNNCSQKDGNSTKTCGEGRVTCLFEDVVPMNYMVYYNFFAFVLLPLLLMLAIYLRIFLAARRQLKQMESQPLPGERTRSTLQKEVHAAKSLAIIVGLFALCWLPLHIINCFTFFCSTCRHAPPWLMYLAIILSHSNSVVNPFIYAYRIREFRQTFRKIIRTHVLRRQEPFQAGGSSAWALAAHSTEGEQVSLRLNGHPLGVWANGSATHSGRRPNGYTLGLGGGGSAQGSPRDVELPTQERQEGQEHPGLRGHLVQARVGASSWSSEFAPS
pKi: −log10 of the molar value.
endpoint: pKi

GET /values?readout=pKi&system=Adenosine receptor A2a (Rattus norvegicus, UniProt P30543)&item= CCCn1cc2c(nc(NC(=O)Nc3cccc(Cl)c3)n3nc(-c4ccco4)nc23)n1
< 5.00
